Molecular target: Phenylethanolamine N-methyltransferase (Bos taurus)
Sequence (P10938 whole entry): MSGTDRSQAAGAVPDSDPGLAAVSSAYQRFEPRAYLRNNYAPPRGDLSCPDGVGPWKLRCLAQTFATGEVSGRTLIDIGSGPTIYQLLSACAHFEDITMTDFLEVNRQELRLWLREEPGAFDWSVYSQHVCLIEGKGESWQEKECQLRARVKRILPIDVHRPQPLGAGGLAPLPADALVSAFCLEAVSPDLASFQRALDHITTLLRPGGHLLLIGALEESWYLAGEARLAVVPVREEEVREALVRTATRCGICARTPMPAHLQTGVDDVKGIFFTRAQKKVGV

compound: N[C@H](CO)CC1CCCCC1
targetDesc: Phenylethanolamine N-methyltransferase (Bos taurus)
valueUnits: µM
modifier: =
Ki: 125
--
compound: N[C@H](CO)Cc1ccccc1 [L-PHENYLALANINOL]
targetDesc: Phenylethanolamine N-methyltransferase (Bos taurus)
valueUnits: µM
modifier: =
Ki: 664
--
compound: C[C@@H](N)Cc1ccccc1 [LEVAMFETAMINE]
targetDesc: Phenylethanolamine N-methyltransferase (Bos taurus)
valueUnits: µM
modifier: =
Ki: 1380
--
compound: NC(CC1CCCCC1)c1ccccc1 (stereo not given)
targetDesc: Phenylethanolamine N-methyltransferase (Bos taurus)
valueUnits: µM
modifier: >
Ki: 1000
--
compound: NC(Cc1ccccc1)Cc1ccccc1
targetDesc: Phenylethanolamine N-methyltransferase (Bos taurus)
valueUnits: µM
modifier: >
Ki: 1000
--
compound: N[C@@H](CO)Cc1ccccc1
targetDesc: Phenylethanolamine N-methyltransferase (Bos taurus)
valueUnits: µM
modifier: =
Ki: 379
--
compound: NC(CO)Cc1ccccc1 (racemic)
targetDesc: Phenylethanolamine N-methyltransferase (Bos taurus)
valueUnits: µM
modifier: =
Ki: 385
--
compound: CCCC(N)Cc1ccccc1 (stereo not given)
targetDesc: Phenylethanolamine N-methyltransferase (Bos taurus)
valueUnits: µM
modifier: >
Ki: 1000
--
compound: CCC(N)Cc1ccccc1 (stereo not given)
targetDesc: Phenylethanolamine N-methyltransferase (Bos taurus)
valueUnits: µM
modifier: >
Ki: 1000
--
compound: C[C@H](N)Cc1ccccc1 [DEXTROAMPHETAMINE]
targetDesc: Phenylethanolamine N-methyltransferase (Bos taurus)
valueUnits: µM
modifier: =
Ki: 442
